Target: 5-hydroxytryptamine receptor 2A (Mus musculus) (UniProt P35363)
Sequence (P35363 whole entry, looked up): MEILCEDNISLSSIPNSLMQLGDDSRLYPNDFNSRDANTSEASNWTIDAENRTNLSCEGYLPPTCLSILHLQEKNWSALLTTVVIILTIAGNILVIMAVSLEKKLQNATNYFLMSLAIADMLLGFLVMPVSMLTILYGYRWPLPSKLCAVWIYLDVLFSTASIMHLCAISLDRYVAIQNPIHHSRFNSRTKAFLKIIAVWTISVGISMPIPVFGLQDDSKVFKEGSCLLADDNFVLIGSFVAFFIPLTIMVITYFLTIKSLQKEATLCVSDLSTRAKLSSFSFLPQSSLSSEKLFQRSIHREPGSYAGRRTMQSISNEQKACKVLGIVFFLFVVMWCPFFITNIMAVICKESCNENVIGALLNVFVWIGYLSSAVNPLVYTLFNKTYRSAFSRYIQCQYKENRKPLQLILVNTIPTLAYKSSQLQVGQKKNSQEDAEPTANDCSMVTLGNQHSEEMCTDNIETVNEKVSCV
Test: mouse Htr2a agonists via beta-arrestin recruitment, primary screen, cell-based, luminescence (AID 624169);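 also: 0% = plate median of compound wells and 100% = 30 µM serotonin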
Details: CHO-K1 mHTR2A beta-arrestin complementation, at 7.6 µM, percent of 30 µM serotonin response
Screen size: about 360,000 compounds; about 2,400 (0.67%) were called active.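 The calls were made as follows: active = activation above a run cutoff, the mean activation of all tested compounds plus 3 SD (cut at about 14% in these data); inactive = the rest.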 What follows is part of a selection rich in actives, with near analogues and random picks from the rest.
Outcome (select one): yes (1) = active, no (0) = inactive

// known answers, use as guide
>  <molecule>
COc1cc(Cl)ccc1OCc1cc(C(=O)N(C)CCc2c(C)n[nH]c2C)no1

>  <group.label>
no (0)

$$$$
>  <molecule>
COc1ccc(-c2nnc(SC(C)C(=O)NC3CC3)o2)cc1 (centres undefined)

>  <group.label>
no (0)

$$$$
>  <molecule>
COc1ccccc1Nc1nnc(SC(C)C(=O)NC2CC2)s1 (centres undefined)

>  <group.label>
yes (1)

$$$$

Next item in the queue.
Problem: Returns: the outcome recorded for N#Cc1c(-c2ccc(F)cc2)cc(C2CC2)nc1SCC(=O)c1cccs1 in this assay.
Result: no (0)
